Just for reference, patent US9315492B2 is where these values come from.

Entries with reported IC50 on S1P1 (Homo sapiens (Human), UniProt P21453)
Sequence (P21453 whole entry): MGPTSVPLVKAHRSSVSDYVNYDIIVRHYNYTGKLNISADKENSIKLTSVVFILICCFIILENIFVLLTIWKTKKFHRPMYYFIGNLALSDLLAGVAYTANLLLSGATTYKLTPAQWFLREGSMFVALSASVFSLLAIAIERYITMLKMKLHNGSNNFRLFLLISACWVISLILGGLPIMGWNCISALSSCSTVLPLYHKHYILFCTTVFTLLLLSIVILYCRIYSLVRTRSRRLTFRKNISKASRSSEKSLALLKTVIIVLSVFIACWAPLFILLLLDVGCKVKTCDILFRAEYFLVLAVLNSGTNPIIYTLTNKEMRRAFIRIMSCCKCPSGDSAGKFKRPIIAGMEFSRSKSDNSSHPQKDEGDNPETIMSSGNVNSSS
Entry format: amount then unit.

{"compound": "CCOc1ccc(-c2nnc(-c3ccc4c(c3)CC(N)(CO)CC4)o2)cc1OCC (centres unmarked)", "targetOfAssay": "S1P1 (Homo sapiens (Human), UniProt P21453)", "reportedMeasurement": "179 nM"}

Below are 6 compounds. Give each one its IC50.
1. COCCOc1ccc(-c2nnc(-c3ccc4c(c3)CC(N)(CO)CC4)o2)cc1 (centres unmarked)
2. CC(C)Oc1ccc(-c2nnc(-c3ccc4c(c3)CC(N)(CO)CC4)o2)cc1C(F)(F)F (centres unmarked)
3. CC(C)Oc1ccc(-c2nnc(-c3ccc4c(c3)CC(N)(CO)CC4)o2)cc1 (centres unmarked)
4. CC(=O)NC1(CO)CCc2ccc(-c3nnc(-c4ccc(OC(C)C)c(C)c4)o3)cc2C1 (centres unmarked)
5. CC(C)Oc1ccc(-c2nnc(-c3ccc4c(c3)CC(N)(CO)CC4)o2)cn1 (centres unmarked)
6. Cc1cc(-c2nnc(-c3ccc4c(c3)CC(CO)(N(C)C)CC4)o2)ccc1OC(C)C (centres unmarked)

OUTPUT:
["31.7 nM", "0.4 nM", "46 nM", "45.5 nM", "61.2 nM", "46 nM"]

INPUT: Could you tell me which IC50 is on file for CCNC1(CO)CCc2ccc(-c3nnc(-c4ccc(OC(C)C)c(C)c4)o3)cc2C1 (centres unmarked) ?
OUTPUT: 37.6 nM

---

S1P1 (Homo sapiens (Human)) measurements of log10 IC50, listed per entry.
Friendly reminder: values = log10 of IC50, unit nM.

Hey, quick one: what's log10 IC50 for each of these?
1. Cc1cc(-c2noc(-c3ccc4c(c3)CC(N)(CO)CC4)n2)ccc1OC(C)C (centres unmarked)
2. Cc1cc(-c2cn(-c3ccc4c(c3)CCC(N)(CO)C4)nn2)ccc1OC(C)C (centres unmarked)
3. COCCOc1ccc(-c2nnc(-c3ccc4c(c3)CC(N)(CO)CC4)o2)cc1C (centres unmarked)

OUTPUT:
[0.08, 2.10, 1.61]

Here are 2 compounds. What values of log10 IC50 were reported for them?
1. Cc1cc(-c2noc(-c3ccc4c(c3)CCC(N)(CO)C4)n2)ccc1OC(C)C (centres unmarked)
2. Cc1cc(-c2nnc(-c3ccc4c(c3)CC(CO)(NS(C)(=O)=O)CC4)o2)ccc1OC(C)C (centres unmarked)

OUTPUT:
1: 2.67; 2: 1.93

---

targetOfAssay: S1P1 (Homo sapiens (Human), UniProt P21453)
protocolDetails: S1P1 β-arrestin assay (PathHunter CHO-K1 EDG1)
experimentalSetup: CHO-EDG-1 cells
observationType: pEC50
Answers are plain numbers, as −log10 of the molar value.

Dear colleague, could you send me pEC50 for each of the items below? Thanks.
1. CC(C)Oc1ccc(-c2nnc(-c3ccc4c(c3)CC(N)(CO)CC4)o2)cc1C(F)(F)F (stereo not shown)
2. Cc1cc(-c2nnc(-c3ccc4c(c3)CC(CO)(N(C)C)CC4)o2)ccc1OC(C)C (stereo not shown)

OUTPUT:
[8.51, 6.45]

// for each compound in input: emit pEC50
1. COCCOc1ccc(-c2nnc(-c3ccc4c(c3)CC(N)(CO)CC4)o2)cc1 (stereo not shown)
2. Cc1cc(-c2cn(-c3ccc4c(c3)CC(N)(CO)CC4)nn2)ccc1OC(C)C (stereo not shown)

OUTPUT:
1. 7.11
2. 7.84
